# reported pIC50; entries follow
details: IC50, mammalian cytotoxicity assay
pIC50: −log10 of the molar value. Where a SMILES comes first, the peptide text is derived from it. [ ]: non-standard residue; d: D form. The star is where a group is joined. NHCH2CH2OH = OCCN*; For = O=C*

| MOLECULE | CENSORING SIGN | pIC50 |
| --- | --- | --- |
| CC(C)C[C@@H](NC(=O)[C@H](C)NC(=O)CNC(=O)[C@@H](NC=O)C(C)C)C(=O)N[C@@H](C)C(=O)N[C@@H](C(=O)N[C@H](C(=O)N[C@@H](C(=O)N[C@@H](Cc1c[nH]c2ccccc12)C(=O)N[C@H](CC(C)C)C(=O)N[C@@H](Cc1c[nH]c2ccccc12)C(=O)N[C@H](CC(C)C)C(=O)N[C@@H](Cc1c[nH]c2ccccc12)C(=O)N[C@H](CC(C)C)C(=O)N[C@@H](Cc1c[nH]c2ccccc12)C(=O)NCCO)[C@H](C)O)C(C)C)C(C)C [B13] (For-VGA[dL]A[dV]V[dT]W[dL]W[dL]W[dL]W-NHCH2CH2OH) | < | 6.00 |
| CC(C)C[C@@H](NC(=O)[C@H](C)NC(=O)CNC(=O)[C@@H](NC=O)C(C)C)C(=O)N[C@@H](C)C(=O)N[C@@H](C(=O)N[C@H](C(=O)N[C@@H](C(=O)N[C@@H](Cc1c[nH]c2ccccc12)C(=O)N[C@@H](C(=O)N[C@@H](Cc1c[nH]c2ccccc12)C(=O)N[C@H](CC(C)C)C(=O)N[C@@H](Cc1c[nH]c2ccccc12)C(=O)N[C@@H](C(=O)N[C@@H](Cc1c[nH]c2ccccc12)C(=O)NCCO)C(C)C)C(C)C)C(C)C)C(C)C)C(C)C [B04] (For-VGA[dL]A[dV]V[dV]W[dV]W[dL]W[dV]W-NHCH2CH2OH) | = | 7.47 |
| CC(C)C[C@@H](NC(=O)[C@H](C)NC(=O)CNC(=O)[C@@H](NC=O)C(C)C)C(=O)N[C@@H](C)C(=O)N[C@H](CC(C)C)C(=O)N[C@H](C(=O)N[C@H](CC(C)C)C(=O)N[C@@H](Cc1c[nH]c2ccccc12)C(=O)N[C@H](CC(C)C)C(=O)N[C@@H](Cc1c[nH]c2ccccc12)C(=O)N[C@@H](C(=O)N[C@@H](Cc1c[nH]c2ccccc12)C(=O)N[C@@H](C(=O)N[C@@H](Cc1c[nH]c2ccccc12)C(=O)NCCO)C(C)C)[C@H](C)O)C(C)C [B11] (For-VGA[dL]A[dL]V[dL]W[dL]W[dT]W[dV]W-NHCH2CH2OH) | = | 6.54 |
| CNC(=O)C[C@@H](NC(=O)[C@@H](NC(=O)[C@@H](CC(C)C)NC(=O)[C@H](C)NC(=O)[C@@H](CC(C)C)NC(=O)[C@H](C)NC(=O)CNC(=O)[C@@H](NC=O)C(C)C)C(C)C)C(=O)N[C@@H](Cc1c[nH]c2ccccc12)C(=O)N[C@H](CC(C)C)C(=O)N[C@@H](Cc1c[nH]c2ccccc12)C(=O)N[C@H](CC(C)C)C(=O)N[C@@H](Cc1c[nH]c2ccccc12)C(=O)N[C@@H](C(=O)N[C@@H](Cc1c[nH]c2ccccc12)C(=O)NCCO)[C@H](C)O [B22] (For-VGA[dL]A[dL]V[dD](NHMe)W[dL]W[dL]W[dT]W-NHCH2CH2OH) | < | 6.00 |
